# Tested on: AMPA receptor
# Test Settings: primary culture of rat embryo cerebral cortex nerve cells; Fura2-AM; 2 μM AMPA; 1 μM MK-801
Readings of IC50 for the listed compounds
# number only, unit nM dropped from output

| Compound | Study System | Observed |
| --- | --- | --- |
| COC(=O)c1cccc(-n2cc(-c3ccccn3)cc(-c3ccccc3C#N)c2=O)c1 | AMPA receptor | 100 |
| N#Cc1ccccc1-c1cc(-c2ccccn2)cn(-c2cccc(Cl)c2)c1=O | AMPA receptor | 20 |
| O=c1c(C2C3CC4CC(C3)CC2C4)cc(-c2ccccn2)cn1-c1ccccc1 (centres unmarked) | AMPA receptor | 7000 |
| CC1=NN=C(c2ccc(N)cc2)c2cc3c(cc2C1)OCO3 [GYKI 52466, reference compound] | AMPA receptor | 9020 |
| N#Cc1ccccc1-c1cc(-c2ccccn2)cn(-c2cccc([N+](=O)[O-])c2)c1=O | AMPA receptor | 100 |
| N#Cc1ccccc1-c1cc(-c2ccccn2)cn(-c2ccsc2)c1=O | AMPA receptor | 30 |
| N#CCc1cccc(-n2cc(-c3ccccn3)cc(-c3ccccc3C#N)c2=O)c1 | AMPA receptor | 60 |
| N#Cc1ccccc1-c1cc(-c2ccccn2)cn(-c2cccc(CO)c2)c1=O | AMPA receptor | 30 |
| N#Cc1ccccc1-c1cc(-c2ccccn2)cn(-c2cccc(O)c2)c1=O | AMPA receptor | 80 |
| N#Cc1ccccc1-c1cc(-c2ccccn2)cn(-c2cccnc2)c1=O | AMPA receptor | 100 |

Task: Could you share what IC50 was measured for N#Cc1ccccc1-c1cc(-c2ccccn2)cn(-c2cccc(F)c2)c1=O , tested on AMPA receptor?
Result: 50

Task: Kindly state the measured IC50 obtained for N#Cc1ccccc1-c1cc(-c2ccccn2)cn(-c2ccccc2)c1=O with AMPA receptor.
Result: 100

Task: Notebook entry, AMPA receptor assay: IC50 of CNc1cccc(-n2cc(-c3ccccn3)cc(-c3ccccc3C#N)c2=O)c1 = ?
Result: 60

Task: # returns recorded IC50 (system: AMPA receptor) for N#Cc1ccccc1-c1cc(-c2ccccc2)cn(-c2ccccc2)c1=O;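 note: neurons cultured at least 8 to 10 days atop an astrocyte layer in 96-well plates, calcium entry read as the change in Fura2 fluorescence ratio at 340/380 nm excitation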
Result: 80
